# test.description: Induction of neurite outgrowth in rat hippocampal neurons assessed as neurite total length at 15.625 ng/ml after 48 hrs relative to control
# Type: functional, Hippocampal neurone
assay.endpoint: Activity (%)

{"smiles.input": "C[C@@H]1CN(CCCC[C@H]2CNC(CCCCc3ccccc3)=N2)C(=S)N1CCCC1CCCCC1", "assay.endpoint": "Activity", "unit.of.measurement": "%", "reported.measurement": 100.8}
{"smiles.input": "CC(C)C[C@@H]1CN(CCCC[C@H]2CNC(CCCCc3ccccc3)=N2)C(=S)N1CCCC1CCCCC1", "assay.endpoint": "Activity", "unit.of.measurement": "%", "reported.measurement": 114}
{"smiles.input": "S=C1N(CCCC[C@H]2CNC(CCCCc3ccccc3)=N2)C[C@@H](c2ccccc2)N1CCCC1CCCCC1", "assay.endpoint": "Activity", "unit.of.measurement": "%", "reported.measurement": 143.7}

* * *

# test.description: Induction of neurite outgrowth in rat hippocampal neurons assessed as neurite total length at 500 ng/ml after 48 hrs relative to control
# Assay type: functional, Hippocampal neurone
assay.endpoint: Activity (%)

{"compound": "CC(C)C[C@@H]1CN(CCCC[C@H]2CNC(C3CCCC3)=N2)C(=S)N1CCC1CCCCC1", "reported.measurement": 248.7}
{"compound": "CC1CCC(CN2C(=S)N(CCCC[C@H]3CNC(CCCc4ccccc4)=N3)C[C@H]2c2ccccc2)CC1 (stereo partly drawn)", "reported.measurement": 221.2261}
{"compound": "CC(C)CCCCN1C(=S)N(CCCC[C@H]2CNC(CCCCc3ccccc3)=N2)C[C@H]1CC(C)C", "reported.measurement": 239.9}

* * *

# test.description: Induction of neurite outgrowth in rat hippocampal neurons assessed as neurite total length at 15.625 ng/ml after 48 hrs relative to control
# Format: functional, Hippocampal neurone
Let's look at some compounds and their measured Activity.

{"compound": "CC1CCC(CN2C(=S)N(CCCC[C@H]3CNC(C4CCCC4)=N3)C[C@H]2C)CC1 (some centres undefined)", "Activity / %": 94.61}
{"compound": "C[C@@H]1CN(CCCC[C@H]2CNC(CC3CCCC3)=N2)C(=S)N1CCCC1CCCCC1", "Activity / %": 104.7}
{"compound": "CC1CCC(CN2C(=S)N(CCCC[C@H]3CNC(C4CCCC4)=N3)C[C@H]2c2ccccc2)CC1 (some centres undefined)", "Activity / %": 251}
{"compound": "CC(C)C[C@@H]1CN(CCCC[C@H]2CNC(C3CCCC3)=N2)C(=S)N1CC1CCC(C)CC1 (some centres undefined)", "Activity / %": 169.9}
{"compound": "CCC(C)CC1=N[C@@H](CCCCN2C[C@@H](c3ccccc3)N(CCCCC(C)C)C2=S)CN1 (some centres undefined)", "Activity / %": 121.4}
{"compound": "CCC(C)CC1=N[C@@H](CCCCN2C[C@@H](C)N(CCC3CCC(C)CC3)C2=S)CN1 (some centres undefined)", "Activity / %": 97.33}
{"compound": "CC(C)C[C@@H]1CN(CCCC[C@H]2CNC(C3CCCC3)=N2)C(=S)N1CCC1CCCCC1", "Activity / %": 194.9}
{"compound": "CC1CCC(CCN2C(=S)N(CCCC[C@H]3CNC(CCCCc4ccccc4)=N3)C[C@H]2C)CC1 (some centres undefined)", "Activity / %": 88.36}
{"compound": "CC(C)CCCCN1C(=S)N(CCCC[C@H]2CNC(CCCCc3ccccc3)=N2)C[C@H]1CC(C)C", "Activity / %": 127.4}
